All values here come from paper PMC4336329.

measured on: human ether-à-go-go-related gene (hERG) potassium channel (human, UniProt Q12809)
Sequence (Q12809 whole entry, looked up): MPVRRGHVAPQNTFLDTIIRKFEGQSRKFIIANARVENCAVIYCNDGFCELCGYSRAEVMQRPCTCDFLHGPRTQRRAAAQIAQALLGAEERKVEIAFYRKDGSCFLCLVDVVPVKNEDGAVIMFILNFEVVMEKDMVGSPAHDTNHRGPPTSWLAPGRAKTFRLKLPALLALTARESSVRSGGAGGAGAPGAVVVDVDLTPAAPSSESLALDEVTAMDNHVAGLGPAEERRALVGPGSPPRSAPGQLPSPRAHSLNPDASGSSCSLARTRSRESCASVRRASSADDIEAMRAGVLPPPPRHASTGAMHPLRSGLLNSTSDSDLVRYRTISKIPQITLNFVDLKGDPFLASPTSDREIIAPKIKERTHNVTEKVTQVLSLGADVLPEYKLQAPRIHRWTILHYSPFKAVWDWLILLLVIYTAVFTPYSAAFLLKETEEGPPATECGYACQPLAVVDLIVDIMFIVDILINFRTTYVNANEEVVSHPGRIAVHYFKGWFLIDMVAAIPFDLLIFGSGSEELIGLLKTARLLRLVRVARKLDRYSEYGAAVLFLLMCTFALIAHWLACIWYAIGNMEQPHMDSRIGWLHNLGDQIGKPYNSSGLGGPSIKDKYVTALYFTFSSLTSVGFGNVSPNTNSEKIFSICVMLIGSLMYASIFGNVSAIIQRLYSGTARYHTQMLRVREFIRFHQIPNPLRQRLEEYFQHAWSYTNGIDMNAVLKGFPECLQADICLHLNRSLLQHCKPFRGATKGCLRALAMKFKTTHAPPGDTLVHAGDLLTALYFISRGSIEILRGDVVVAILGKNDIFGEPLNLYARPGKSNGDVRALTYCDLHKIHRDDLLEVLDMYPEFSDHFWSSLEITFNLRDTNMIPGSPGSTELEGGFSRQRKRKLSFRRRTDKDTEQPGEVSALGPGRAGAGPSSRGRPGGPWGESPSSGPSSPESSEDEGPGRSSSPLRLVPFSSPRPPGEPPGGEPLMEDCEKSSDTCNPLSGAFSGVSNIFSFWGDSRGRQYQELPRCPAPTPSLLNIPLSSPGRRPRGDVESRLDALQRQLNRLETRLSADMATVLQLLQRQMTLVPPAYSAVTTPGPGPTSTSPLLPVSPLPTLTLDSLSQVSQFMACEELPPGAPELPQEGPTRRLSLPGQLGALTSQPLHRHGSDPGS
test details: primary screen, population patch clamp on CHO cells stably expressing hERG; higher = less effect of the substance;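 further: peak tail current of the secondary pulse compared with the same well before compound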
The campaign covered roughly 310,000 compounds. About 14,000 (4.5%) showed an effect of 50% or more. The effect is printed as a negative number. The entries come from a sample that favours strong results as a whole.
Here, each record is paired with measured hERG current change (%, negative = inhibition) at 10uM data.
# answer = value followed by unit

Worked cases, answers included:
N=c1c2c(ncn1Cc1ccco1)Oc1ccc3ccccc3c1C2c1ccccc1 (centres unmarked); -6.08%
COc1ccc(C2C3=C(CC(C)(C)CC3=O)OC(N)=C2[N+](=O)[O-])cc1 (centres unmarked); 8.74%
CCOC(=O)C1=NN(c2cccc(Cl)c2)C2=NC(C)=C(C(=O)OC)C(c3cccs3)N12 (centres unmarked); 6.72%
COc1ccc(C2C(C#N)=C(N)OC3=C2C(=O)CC(C)(C)C3)cc1 (centres unmarked); 12.8%
COc1ccc2nc(C)c3cc(C)oc3c2c1; -15.5%

GET /value?item= CCOc1ccccc1C1CC(=O)NC(SCC(=O)Nc2nccs2)=C1C#N (centres unmarked) &field=hERG current change (%, negative = inhibition) at 10uM returns -0.586%

The reported value for N#Cc1ccc(Oc2cc(C(F)(F)F)nc(-c3ccccn3)n2)cc1 in terms of hERG current change (%, negative = inhibition) at 10uM is 5.26%

Per the records, this molecule ( CCOc1cc(/C=C2/C(=N)N3C(=NC2=O)SN=C3S(=O)(=O)C(C)C)ccc1OC(=O)c1ccco1 ) has hERG current change (%, negative = inhibition) at 10uM equal to 3.02%

hERG current change (%, negative = inhibition) at 10uM for CC1=CC(=O)C=C(C)C1=NOC(=O)c1cccc([N+](=O)[O-])c1 is 9.59%

hERG current change (%, negative = inhibition) at 10uM recorded for this molecule, Cc1ccc2c(c1)nnn2C1CCN(S(=O)(=O)c2ccc(C(=O)NC3CCCC3)cc2)CC1 , is 15.9%

So for COc1ccc(C2C3=C(CC(C)(C)CC3=O)Oc3ncn(CC(C)C)c(=N)c32)cc1 (centres unmarked) , the logged hERG current change (%, negative = inhibition) at 10uM turned out to be -69.1%

----------
measured on: human ether-à-go-go-related gene (hERG) potassium channel (human, UniProt Q12809)
test details: primary screen, population patch clamp on CHO cells stably expressing hERG; higher = less effect of the substance
Out of some 310,000 compounds screened, about 14,000 (4.5%) showed an effect of 50% or more. Effects have a minus sign here. The full list was thinned out, with strong results kept by preference.
Listed compounds paired with reported hERG current change (%, negative = inhibition) at 10uM
# unit: % | format: bare number

The reported hERG current change (%, negative = inhibition) at 10uM of the compound O=C(NC1CC(=O)N(c2ccc(F)cc2)C1)N1CCN(C(=O)c2ccco2)CC1 (stereo not shown) was -63

----------
measured on: human ether-à-go-go-related gene (hERG) potassium channel (human)
test details: primary screen, population patch clamp on CHO cells stably expressing hERG; higher = less effect of the substance
Protocol: Briefly, Chinese hamster ovary (CHO) cells stably expressing the hERG channel were dislodged from tissue culture flasks and dispensed into PPC plates. […] During the recording, background leak currents were estimated by a 100 ms step to -80 mV from an initial holding potential of -70 mV and subtracted from the subsequent current measurement. The campaign was conducted in two phases using slight differences in recording protocol. […]
About 14,000 (4.5%) of roughly 310,000 compounds showed an effect of 50% or more. Effects have a minus sign here. The full list was thinned out, with strong results kept by preference.
Listed below: hERG current change (%, negative = inhibition) at 10uM values for each entry.
Use % as the unit, but write only the number.

Below: 3 molecules and their reported hERG current change (%, negative = inhibition) at 10uM.
COc1cc(C)c(CN2CCN(C(C)C(=O)NC(C)c3ccccc3)CC2)cc1OC (stereo not drawn); -18.3
COc1ccc(CN2CCN(C(C)C(=O)N(C)Cc3cccc(F)c3)CC2)cc1OC.O=C(O)C(=O)O (stereo not drawn); -61
CC(NC(=O)C(C)N1CCN(Cc2ccccc2)CC1)c1ccc(F)cc1 (stereo not drawn); 5.35

Entry COc1ccc(CN2CCN(C(C)C(=O)NC(C)c3ccc(F)cc3)CC2)cc1F (stereo not drawn) , hERG current change (%, negative = inhibition) at 10uM reported as -62

Query CC(C)OC(=O)/C(C#N)=C/c1cn(Cc2ccccc2)c2ccccc12 yields hERG current change (%, negative = inhibition) at 10uM of -6.73

COc1ccc(CN2CCN(S(=O)(=O)c3ccc(F)cc3)CC2)cc1OC.O=C(O)C(=O)O has a reported hERG current change (%, negative = inhibition) at 10uM of 7.33

Reported hERG current change (%, negative = inhibition) at 10uM ( CCOc1ccccc1N1CCN(Cc2ccc(OC)c(OC)c2OC)CC1 ) = -51.9

hERG current change (%, negative = inhibition) at 10uM in this record for CCOc1ccc(NC(=O)/C=C/c2ccccc2)c([N+](=O)[O-])c1 : -5.94

Given item COc1ccc(CN2CCN(c3cccc(C)c3C)CC2)cc1OC , the value recorded as its hERG current change (%, negative = inhibition) at 10uM is -72

----------
Quick reference for hERG current change (%, negative = inhibition) at 10uM among some molecules
measured on: human ether-à-go-go-related gene (hERG) potassium channel (human, UniProt Q12809)
test details: primary screen, population patch clamp on CHO cells stably expressing hERG; higher = less effect of the substance
Out of some 310,000 compounds screened, about 14,000 (4.5%) showed an effect of 50% or more. The effect is printed as a negative number. The sample holds strong results, similar compounds and a random draw of the others, so the mix is not that of the screen.

Cc1[nH]c(C)c2c(=O)n(-c3ccccc3)ncc12; 10.2%
CCOC(=O)c1c(CN2CCCCC2)n(C)c2cc(Br)c(OC)cc12; -31.7%
O=C(COc1ccccc1)Nc1cc2c3c(c1)CC(=O)N3CCC2; -36%
CC(C)CN(CC(C)C)C(=O)c1cccc(S(=O)(=O)N2CCc3ccccc32)c1; -24.9%
Cc1ccc(-c2ocnc2C(=O)N2CCOCC2)cc1; 21.4%
O=C(Cn1c(-c2ccccc2)noc1=O)Nc1ccc(N2CCCCCC2)cc1; 6.95%
CCC(C)Sc1cccc(-c2nc3cc(C)ccn3c2NCc2ccccc2)c1.O=C(O)C(F)(F)F (stereo not drawn); 4.02%
Cc1cc(C)c(S(=O)(=O)NCc2cn3ccccc3n2)c(C)c1; 4.96%
CCCC(=O)Nc1ccc(Oc2ccc(NC(=O)CCC)cc2)cc1; 2.76%
COc1ccc(OCC(=O)Nc2ccc3c(c2)nc(CN2CCCC2)n3C)cc1; -26.9%

Field hERG current change (%, negative = inhibition) at 10uM (entry Cc1ccc(C(=O)Nc2cccnc2)cc1Cl ) reads 4.54%

For this molecule ( Cc1cc(C(=O)OCC(=O)NC2CCCCC2)c(C)o1 ), measured hERG current change (%, negative = inhibition) at 10uM is 9.12%

Recorded result, CC(C)(C)C(=O)Nc1ccc(NC(=O)C(C)(C)C)cc1 , hERG current change (%, negative = inhibition) at 10uM: -6.63%

Entry CCOC(=O)C1(CC2CC2)CCN(C(=O)c2cc(OC)nc3ccccc23)CC1 — recorded hERG current change (%, negative = inhibition) at 10uM = -12.9%

Entry under test: CCc1cc2c(=O)n(N)c(CCC(=O)O)nc2s1 . Its hERG current change (%, negative = inhibition) at 10uM was -8.56%

For reference, reported hERG current change (%, negative = inhibition) at 10uM for COC(=O)N/N=C/c1c[nH]c2ccccc12 stands at 14.5%

Lookup result for O=C(COc1ccc(Cl)cc1)Nc1cc2c3c(c1)CC(=O)N3CCC2 ; measured hERG current change (%, negative = inhibition) at 10uM: -57.1%

In plain terms, CCOc1ccc(N(CC(=O)Nc2nccs2)S(=O)(=O)c2c(C)noc2C)cc1 has a documented hERG current change (%, negative = inhibition) at 10uM of -5.98%

The recorded hERG current change (%, negative = inhibition) at 10uM for entry CCC1CCCCN1CCCNC(=O)CSc1nc2nc(C)c(Cc3ccc(C)cc3)c(C)n2n1 (stereo not drawn) equals -47.8%

response.value for Cn1c(CN2CCCC2)nc2cc(NC(=O)COc3ccccc3)ccc21 (field: hERG current change (%, negative = inhibition) at 10uM) = -34.1%

CCOC(=O)c1c(CN2CCC(C)CC2)n(C)c2cc(Br)c(OC)cc12 has a reported hERG current change (%, negative = inhibition) at 10uM of 10.5%

----------
This listing pairs compounds with measured hERG current change (%, negative = inhibition) at 10uM.
measured on: human ether-à-go-go-related gene (hERG) potassium channel (human, UniProt Q12809)
test details: primary screen, population patch clamp on CHO cells stably expressing hERG; higher = less effect of the substance
The campaign covered roughly 310,000 compounds. About 14,000 (4.5%) showed an effect of 50% or more. The effect is printed as a negative number. This excerpt belongs to a sample that is enriched for strong results.
The reply should be a number in %, with the unit left off.

Here are 5 compounds together with their reported answers.
COc1cc(NC(=O)c2cccnc2)c(Cl)cc1NC(=O)c1ccc(Cl)cc1; -0.00342
CC1CCCN1CC#CC(O)(c1ccccc1)c1ccccc1.Cl (stereo not shown); -60.7
COc1ccc(OC)c(NC(=O)c2ccccc2SC)c1; -40.2
O=C(O)C(Cc1c[nH]c2ccccc12)N1C(=O)c2ccccc2C1=O (stereo not shown); -2.61
FC(F)(F)c1ccc(N2CCN(c3ncnc4c3nnn4Cc3ccccc3)CC2)nc1; -2.11

// hERG current change (%, negative = inhibition) at 10uM value for CCN(C(=O)COC(=O)C1CCN(S(=O)(=O)c2ccc3c(c2)OCCO3)CC1)C1CCCCC1 : -2.31

# hERG current change (%, negative = inhibition) at 10uM of OC(C#CCN1CCCCC1)(c1ccccc1)c1ccccc1 = -24.6

Measured hERG current change (%, negative = inhibition) at 10uM of OC(C#CCCN1CCCCC1)(c1ccccc1)c1ccccc1 : -53.8

What the record says about COC(=O)C1=C(C)N(c2ccc(C(=O)OC)cc2)C(=O)C1 : hERG current change (%, negative = inhibition) at 10uM is 22.3

Form field hERG current change (%, negative = inhibition) at 10uM, entry CCCn1c(N)c(C(=O)CSc2n[nH]c(-c3ccc(C)cc3)n2)c(=O)[nH]c1=O : 22.2
